Measured values drawn from patent US20240115578A1 for this set.

- test_description: Physicochemical input parameters of alectinib for PBPK model
reported_endpoint: logP
Give bare numbers.

Field request: logP | item: CCc1cc2c(cc1N1CCC(N3CCOCC3)CC1)C(C)(C)c1[nH]c3cc(C#N)ccc3c1C2=O [alectinib]
1.96

* * *

- test_description: Intrinsic clearance, other HLM
- Format: in vitro ADME
- condition_details: human, human liver microsomes; PBPK input; read-out: CLint, HLMother
reported_endpoint: microsomal CLint (µL/min/mg)
Answers are plain numbers, in µL/min/mg.

Entry under review: `CCc1cc2c(cc1N1CCC(N3CCOCC3)CC1)C(C)(C)c1[nH]c3cc(C#N)ccc3c1C2=O` . Reported microsomal CLint?
1710
